# TARGET ENTITY: alkaline phosphatase, placental type (Homo sapiens)
# ASSAY: PLAP enzyme inhibitors, dose response, selectivity assay for mouse IAP inhibitor project, biochemical, uHTS hits (AID 488879)
# TEST SETTINGS: purified human placental alkaline phosphatase, enzymatic inhibition
The source made the active and inactive calls. The rule behind the calls is not given here.
Here, each record is paired with measured IC50 data.

The examples below pair each entry with its known result.
O=C(COc1ccccc1C(=O)N/N=C\c1ccc(O)c(O)c1)N/N=C/c1ccc(O)c(O)c1; > 100 µM (inactive)
Cc1ccc(S(=O)(=O)N2CCC(C(=O)Nc3ccc(C(C)C)cc3)CC2)cc1; > 100 µM (inactive)

// `O=C1NN(c2cccc(Br)c2)C(=O)/C1=C/c1ccc(-c2cc([N+](=O)[O-])ccc2O)o1` : IC50 value = > 100 µM (inactive)

// `CCOC(=O)c1ccc(N2CCN(c3ccccc3F)CC2)c(NC(=O)Nc2cccc(OC)c2)c1` : IC50 value = > 100 µM (inactive)

// Cc1ccc(CN2C3CCCC2CC(NC(=O)Nc2cccc(F)c2)C3)cc1 (stereo not given) : IC50 value = > 100 µM (inactive)

// Oc1cc(O)c2c(c1)OC(c1ccc(O)c(O)c1)C(O)C2 (stereo not given) : IC50 value = > 100 µM (inactive)

// `N#C/C(=C\c1ccc(O)c(O)c1)C(=O)Nc1cccc2ncccc12` : IC50 value = 7.32 µM

----------
# TARGET ENTITY: alkaline phosphatase, placental type (Homo sapiens)
# ASSAY: PLAP enzyme inhibitors, dose response, selectivity assay for mouse IAP inhibitor project, biochemical, uHTS hits (AID 488879)
# TEST SETTINGS: purified human placental alkaline phosphatase, enzymatic inhibition
Activity calls are given as the source filed them. How the calls were made is not given here.
Here, each record is paired with measured IC50 data.

O=C1c2cccc(O)c2C(=O)c2c(O)cc(CO)cc21; > 100 µM (inactive)

Fill in: alkaline phosphatase, placental type (Homo sapiens) IC50 for `COc1cc(/C=N/NC(=O)c2cc(O)cc(O)c2)ccc1OC(=O)c1ccccc1` = 70.1 µM

Fill in: alkaline phosphatase, placental type (Homo sapiens) IC50 for `Cc1ccc(NC(=S)NCc2ccccc2)cc1S(=O)(=O)N1CCCCC1` = > 100 µM (inactive)

Fill in: alkaline phosphatase, placental type (Homo sapiens) IC50 for `COc1cccc(NC(=S)NCCC(c2ccccc2)c2ccccc2)c1` = > 100 µM (inactive)

Fill in: alkaline phosphatase, placental type (Homo sapiens) IC50 for `Cc1cccnc1Nc1nc(-c2ccc(O)c(O)c2)cs1` = > 100 µM (inactive)

Fill in: alkaline phosphatase, placental type (Homo sapiens) IC50 for `COc1cccc(NC(=O)CN(C)S(=O)(=O)c2ccc3[nH]c(=O)oc3c2)c1` = > 100 µM (inactive)

----------
# TARGET ENTITY: alkaline phosphatase, placental type (Homo sapiens)
# ASSAY: PLAP enzyme inhibitors, dose response, selectivity assay for mouse IAP inhibitor project, biochemical, uHTS hits (AID 488879)
# TEST SETTINGS: purified human placental alkaline phosphatase, enzymatic inhibition
Active and inactive are the calls of the source. How the calls were made is not given here.
Here, each record is paired with measured IC50 data.

// `N#Cc1c(SCC(=O)Nc2nncs2)sc2c(O)cc(=O)[nH]c12` : IC50 value = > 100 µM (inactive)

// O=C(Nc1ccc(Cl)cc1)NC1CCCCC1Cc1ccco1 (stereo not drawn) : IC50 value = > 100 µM (inactive)

// `S=C(NCCC(c1ccccc1)c1ccccc1)Nc1ccc(Cl)cc1` : IC50 value = > 100 µM (inactive)

----------
# TARGET ENTITY: alkaline phosphatase, placental type (Homo sapiens)
# ASSAY: PLAP enzyme inhibitors, dose response, selectivity assay for mouse IAP inhibitor project, biochemical, uHTS hits (AID 488879)
# TEST SETTINGS: purified human placental alkaline phosphatase, enzymatic inhibition
Calls of active or inactive are those of the source. How the calls were made is not given here.
Answer with one of the outcomes given here: YES for active, NO for inactive

Consider the worked cases shown below.
O=C(NN1C(=O)/C(=C/C=C/c2ccco2)SC1=S)c1ccccc1O; YES
O=c1ccc2c(-c3ccccc3S(=O)(=O)O)c3ccc(O)c(O)c3oc-2c1O; NO

Problem: Which result was noted for this molecule in the test: `O=C(CN1C(=O)/C(=C/c2ccco2)SC1=S)Nc1ccc(O)c(C(=O)O)c1`
Solution: YES
